Experiment: Half life in PBS solution at pH 7.4
Assay type: ADME
MEASUREMENT_KIND: half-life (h)
Record the value in h, omitting the unit from your answer.

# input Tell me its half-life given CC[C@@]1(OC(=O)CCC(=O)O[C@@H]2O[C@@H]3O[C@@]4(C)CC[C@H]5[C@H](C)CC[C@@H]([C@H]2C)[C@@]35OO4)C(=O)OCc2c1cc1n(c2=O)Cc2cc3c(CN(C)C)c(O)ccc3nc2-1 as the entry.
# output 15

----------
Tested on: Mus musculus
Experiment: Toxicity in BALB/c nude mouse assessed as animal death at 0.023 mmol/kg, ip administered every 2 days for 3 times measured on day 6
Format: organism-based
Details: in vivo, 48 h
MEASUREMENT_KIND: Activity

CC[C@@]1(O)C(=O)OCc2c1cc1n(c2=O)Cc2cc3ccccc3nc2-1 [CAMPTOTHECIN]
Toxic
CC[C@@]1(OC(=O)CCC(=O)O[C@@H]2O[C@@H]3O[C@@]4(C)CC[C@H]5[C@H](C)CC[C@@H]([C@H]2C)[C@@]35OO4)C(=O)OCc2c1cc1n(c2=O)Cc2cc3c(CN(C)C)c(O)ccc3nc2-1
Non-toxic
CC[C@@]1(O)C(=O)OCc2c1cc1n(c2=O)Cc2cc3c(CN(C)C)c(O)ccc3nc2-1 [TOPOTECAN]
Toxic
C[C@H]1[C@H](OC(=O)CCC(=O)O)O[C@@H]2O[C@@]3(C)CC[C@H]4[C@H](C)CC[C@@H]1[C@@]24OO3 [ARTESUNATE]
Non-toxic
